Hey, just so you know, these numbers are from the supplement of paper PMC11316812.

Test system: MCF7
Test: percentage of EdU-negative (G0-arrested) nuclei per well, 72 h; higher = more G0 arrest
Settings: protein concentration 0.0225 µM; reference: sequence is the full UniProt precursor, the tested protein was the secreted form or ectodomain
observable: percentage of EdU-negative

* MLSGRLVLGLVSMAGRVCLCQGSAGSGAIGPVEAAIRTKLEEALSPEVLELRNESGGHAVPPGSETHFRVAVVSSRFEGLSPLQRHRLVHAALAEELGGPVHALAIQARTPAQWRENSQLDTSPPCLGGNKKTLGTP [Q9Y3E2] | 28%
* MVTLRKRTLKVLTFLVLFIFLTSFFLNYSHTMVATTWFPKQMVLELSENLKRLIKHRPCTCTHCIGQRKLSAWFDERFNQTMQPLLTAQNALLEDDTYRWWLRLQREKKPNNLNDTIKELFRVVPGNVDPMLEKRSVGCRRCAVVGNSGNLRESSYGPEIDSHDFVLRMNKAPTAGFEADVGTKTTHHLVYPESFRELGDNVSMILVPFKTIDLEWVVSAITTGTISHTYIPVPAKIRVKQDKILIYHPAFIKYVFDNWLQGHGRYPSTGILSVIFSMHVCDEVDLYGFGADSKGNWHHYWENNPSAGAFRKTGVHDADFESNVTATLASINKIRIFKGR | 24.2%
* MMPKHCFLGFLISFFLTGVAGTQSTHESLKPQRVQFQSRNFHNILQWQPGRALTGNSSVYFVQYKIMFSCSMKSSHQKPSGCWQHISCNFPGCRTLAKYGQRQWKNKEDCWGTQELSCDLTSETSDIQEPYYGRVRAASAGSYSEWSMTPRFTPWWETKIDPPVMNITQVNGSLLVILHAPNLPYRYQKEKNVSIEDYYELLYRVFIINNSLEKEQKVYEGAHRAVEIEALTPHSSYCVVAEIYQPMLDRRSQRSEERCVEIP [Q969J5] | 24.1%
* MCGPDDRCPARWPGPGRAVKCGKGLAAARPGRVERGGAQRGGAGLELHPLLGGRTWRAARDADGCEALGTVAVPFDDDDKIVGGYTCEENSLPYQVSLNSGSHFCGGSLISEQWVVSAAHCYKTRIQVRLGEHNIKVLEGNEQFINAAKIIRHPKYNRDTLDNDIMLIKLSSPAVINARVSTISLPTTPPAAGTECLISGWGNTLSFGADYPDELKCLDAPVLTQAECKASYPGKITNSMFCVGFLEGGKDSCQRDSGGPVVCNGQLQGVVSWGHGCAWKNRPGVYTKVYNYVDWIKDTIAANS | 25.3%
* MKMRFLGLVVCLVLWTLHSEGSGGKLTAVDPETNMNVSEIISYWGFPSEEYLVETEDGYILCLNRIPHGRKNHSDKGPKPVVFLQHGLLADSSNWVTNLANSSLGFILADAGFDVWMGNSRGNTWSRKHKTLSVSQDEFWAFSYDEMAKYDLPASINFILNKTGQEQVYYVGHSQGTTIGFIAFSQIPELAKRIKMFFALGPVASVAFCTSPMAKLGRLPDHLIKDLFGDKEFLPQSAFLKWLGTHVCTHVILKELCGNLCFLLCGFNERNLNMSRVDVYTTHSPAGTSVQNMLHWSQAVKFQKFQAFDWGSSAKNYFHYNQSYPPTYNVKDMLVPTAVWSGGHDWLADVYDVNILLTQITNLVFHESIPEWEHLDFIWGLDAPWRLYNKIINLMRKYQ | 25.1%

###

Test system: MCF7
Assay: percentage of EdU-negative (G0-arrested) nuclei per well, 72 h; higher = more G0 arrest
Conditions: protein concentration 0.357143 µM; reference: sequence is the full UniProt precursor, the tested protein was the secreted form or ectodomain
observable: percentage of EdU-negative (%)

* MMRTCVLLSAVLWCLTGVQCPRFTLFNKKGFIYGKTGQPDKIYVELHQNSPVLICMDFKLSKKEIVDPTYLWIGPNEKTLTGNNRINITETGQLMVKDFLEPLSGLYTCTLSYKTVKAETQEEKTVKKRYDFMVFAYREPDYSYQMAVRFTTRSCIGRYNDVFFRVLKKILDSLISDLSCHVIEPSYKCHSVEIPEHGLIHELFIAFQVNPFAPGWKGACNGSVDCEDTTNHNILQARDRIEDFFRSQAYIFYHNFNKTLPAMHFVDHSLQVVRLDSCRPGFGKNERLHSNCASCCVVCSPATFSPDVNVTCQTCVSVLTYGAKSCPQTSNKNQQYED [Q6X784] | 28.8
* MARILLLFLPGLVAVCAVHGIFMDRLASKKLCADDECVYTISLASAQEDYNAPDCRFINVKKGQQIYVYSKLVKENGAGEFWAGSVYGDGQDEMGVVGYFPRNLVKEQRVYQEATKEVPTTDIDFFCE [Q9NRC9] | 27
* MWLLVSVILISRISSVGGEAMFCDFPKINHGILYDEEKYKPFSQVPTGEVFYYSCEYNFVSPSKSFWTRITCAEEGWSPTPKCLRLCFFPFVENGHSESSGQTHLEGDTVQIICNTGYRLQNNENNISCVERGWSTPPKCRSTISAEKCGPPPPIDNGDITSFLLSVYAPGSSVEYQCQNLYQLEGNNQITCRNGQWSEPPKCLDPCVISQEIMEKYNIKLKWTNQQKLYSRTGDIVEFVCKSGYHPTKSHSFRAMCQNGKLVYPSCEEK | 27.9

###

Let's look at some sequences and their measured percentage of EdU-negative.
Test system: MCF7;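 further: secreted proteins added to cultured cells, EdU pulse at the end, nuclei found by Hoechst imaging, EdU status from nuclear versus surrounding ring intensity ratio, PBS as neutral control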
Assay: percentage of EdU-negative (G0-arrested) nuclei per well, 72 h; higher = more G0 arrest
Settings: protein concentration 0.0257143 µM; reference: sequence is the full UniProt precursor, the tested protein was the secreted form or ectodomain
observable: percentage of EdU-negative (%)

- MKSLTWILGLWALAACFTPGESQRGPRGPYPPGPLAPPPPPCFPFGTGFVPPPHPPPYGPGRFPPPLSPPYGPGRIPPSPPPPYGPGRIQSHSLPPPYGPGYPQPPSQPRPYPPGPPFFPVNSPTDPALPTPAP: 22.6
- MKPWILLLVMFISGVVMLLPVLGSFWNKDPFLDMIRETEQCWVQPPYKYCEKRCTKIMTCVRPNHTCCWTYCGNICLDNEEPLKSMLNP [Q8NEX5]: 26
- MAKDFQDIQQLSSEENDHPFHQGEGPGTRRLNPRRGNPFLKGPPPAQPLAQRLCSMVCFSLLALSFNILLLVVICVTGSQSEGHGGAQLQAELRSLKEAFSNFSSSTLTEVQAISTHGGSVGDKITSLGAKLEKQQQDLKADHDALLFHLKHFPVDLRFVACQMELLHSNGSQRTCCPVNWVEHQGSCYWFSHSGKAWAEAEKYCQLENAHLVVINSWEEQKFIVQHTNPFNTWIGLTDSDGSWKWVDGTDYRHNYKNWAVTQPDNWHGHELGGSEDCVEVQPDGRWNDDFCLQVYRWVCEKRRNATGEVA: 27
- MERVQPLEENVGNAARPRFERNKLLLVASVIQGLGLLLCFTYICLHFSALQVSHRYPRIQSIKVQFTEYKKEKGFILTSQKEDEIMKVQNNSVIINCDGFYLISLKGYFSQEVNISLHYQKDEEPLFQLKKVRSVNSLMVASLTYKDKVYLNVTTDNTSLDDFHVNGGELILIHQNPGEFCVL: 23.4
- MHLLLFQLLVLLPLGKTTRHQDGRQNQSSLSPVLLPRNQRELPTGNHEEAEEKPDLFVAVPHLVATSPAGEGQRQREKMLSRFGRFWKKPEREMHPSRDSDSEPFPPGTQSLIQPIDGMKMEKSPLREEAKKFWHHFMFRKTPASQGVILPIKSHEVHWETCRTVPFSQTITHEGCEKVVVQNNLCFGKCGSVHFPGAAQHSHTSCSHCLPAKFTTMHLPLNCTELSSVIKVVMLVEECQCKVKTEHEDGHILHAGSQDSFIPGVSA: 23.4
- MKLSGMFLLLSLALFCFLTGVFSQGGQVDCGEFQDPKVYCTRESNPHCGSDGQTYGNKCAFCKAIVKSGGKISLKHPGKC [Q6UWN8]: 24.2
- MAPAMESPTLLCVALLFFAPDGVLAVPQKPKVSLNPPWNRIFKGENVTLTCNGNNFFEVSSTKWFHNGSLSEETNSSLNIVNAKFEDSGEYKCQHQQVNESEPVYLEVFSDWLLLQASAEVVMEGQPLFLRCHGWRNWDVYKVIYYKDGEALKYWYENHNISITNATVEDSGTYYCTGKVWQLDYESEPLNITVIKAPREKYWLQFFIPLLVVILFAVDTGLFISTQQQVTFLLKIKRTRKGFRLLNPHPKPNPKNN: 24.7
- MKSLTWILGLWALAACFTPGESQRGPRGPYPPGPLAPPQPFGPGFVPPPPPPPYGPGRIPPPPPAPYGPGIFPPPPPQP: 26.1
- MKKSGVLFLLGIILLVLIGVQGTPVVRKGRCSCISTNQGTIHLQSLKDLKQFAPSPSCEKIEIIATLKNGVQTCLNPDSADVKELIKKWEKQVSQKKKQKNGKKHQKKKVLKVRKSQRSRQKKTT: 24.8
- MAPPSVPLVLLLVLLLSLAETPASAPAHRGRGGWTLNSAGYLLGPVLHLPQMGDQDGKRETALEILDLWKAIDGLPYSHPPQPSKRNVMETFAKPEIGDLGMLSMKIPKEEDVLKS [Q9UBC7]: 25.7
- MQKVTLGLLVFLAGFPVLDANDLEDKNSPFYYDWHSLQVGGLICAGVLCAMGIIIVMSAKCKCKFGQKSGHHPGETPPLITPGSAQS: 26.4
